System under test: T1, human VEGF-A residues 27-191 of Accession #AAV38412 (human, UniProt P15692 27-191)
T1 construct: range 27-191
T1 sequence (P15692 other isoform, or with tags, fused parts or gaps limits assumed): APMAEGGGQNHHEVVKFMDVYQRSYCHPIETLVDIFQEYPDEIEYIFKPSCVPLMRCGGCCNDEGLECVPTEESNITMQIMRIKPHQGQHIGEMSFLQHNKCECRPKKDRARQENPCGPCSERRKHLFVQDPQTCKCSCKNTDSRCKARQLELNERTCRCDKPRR
Method summary: BIAcore SPR, KD WT/KD mutant
Description: The binding kinetics and affinity of the antibodies for VEGF (human VEGF-A residues 27-191 of Accession #AAV38412) was determined by using a BIAcore T200 surface plasmon resonance system (BIAcore, GE Healthcare, Piscataway, N.J.). Coupling running buffer was HBS-EP+ running buffer (10 mM HEPES, 150 mM sodium chloride, 3 mM EDTA 0.05% P-20, pH 7.4); assay running buffer was HBS-EP+ with 300 mM sodium chloride and 0.1 mg/mL BSA (Sigma A7906). […]
// classify: if (affinity improvement < 2 fold) True else False

{"columns": ["Binder", "Label"],
 "data": [
  ["N31 Y (anti-VEGF IgG) (antibody, V domains shown, copies: 2 + 2) VH: EVQLVESGGGLVQPGGSLRLSCAASGYTFTYYGMNWVRQAPGKGLEWVGWINTYTGEPTYAADFKRRFTFSLDTSKSTAYLQMNSLRAEDTAVYYCAKYPHYYGSSHWYFDVWGQGTLVTVSS VL: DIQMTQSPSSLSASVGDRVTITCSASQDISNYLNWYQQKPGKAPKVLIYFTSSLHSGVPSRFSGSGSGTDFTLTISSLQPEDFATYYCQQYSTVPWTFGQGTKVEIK", "False"],
  ["S100a G (anti-VEGF IgG) (antibody, V domains shown, copies: 2 + 2) VH: EVQLVESGGGLVQPGGSLRLSCAASGYTFTNYGMNWVRQAPGKGLEWVGWINTYTGEPTYAADFKRRFTFSLDTSKSTAYLQMNSLRAEDTAVYYCAKYPHYYGGSHWYFDVWGQGTLVTVSS VL: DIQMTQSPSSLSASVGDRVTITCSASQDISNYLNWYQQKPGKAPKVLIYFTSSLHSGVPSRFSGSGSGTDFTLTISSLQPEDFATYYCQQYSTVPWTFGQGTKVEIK", "True"],
  ["N31 L (anti-VEGF IgG) (antibody, V domains shown, copies: 2 + 2) VH: EVQLVESGGGLVQPGGSLRLSCAASGYTFTLYGMNWVRQAPGKGLEWVGWINTYTGEPTYAADFKRRFTFSLDTSKSTAYLQMNSLRAEDTAVYYCAKYPHYYGSSHWYFDVWGQGTLVTVSS VL: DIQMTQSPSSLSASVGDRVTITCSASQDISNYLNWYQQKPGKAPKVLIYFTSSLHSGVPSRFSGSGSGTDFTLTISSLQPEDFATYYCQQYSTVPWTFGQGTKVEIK", "True"],
  ["T28 G (anti-VEGF IgG) (antibody, V domains shown, copies: 2 + 2) VH: EVQLVESGGGLVQPGGSLRLSCAASGYGFTNYGMNWVRQAPGKGLEWVGWINTYTGEPTYAADFKRRFTFSLDTSKSTAYLQMNSLRAEDTAVYYCAKYPHYYGSSHWYFDVWGQGTLVTVSS VL: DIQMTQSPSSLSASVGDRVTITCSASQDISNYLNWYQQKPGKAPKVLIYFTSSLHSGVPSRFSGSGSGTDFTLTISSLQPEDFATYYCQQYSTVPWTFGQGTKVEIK", "True"],
  ["S100a T (anti-VEGF IgG) (antibody, V domains shown, copies: 2 + 2) VH: EVQLVESGGGLVQPGGSLRLSCAASGYTFTNYGMNWVRQAPGKGLEWVGWINTYTGEPTYAADFKRRFTFSLDTSKSTAYLQMNSLRAEDTAVYYCAKYPHYYGTSHWYFDVWGQGTLVTVSS VL: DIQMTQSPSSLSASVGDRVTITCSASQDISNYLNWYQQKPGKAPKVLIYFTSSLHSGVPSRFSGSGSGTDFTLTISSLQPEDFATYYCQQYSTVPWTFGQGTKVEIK", "False"],
  ["91 (antibody, human IgG1, V domains shown) VH: EVQLVESGGGLVQPGGSLRLSCAASGYTFTFYGMNWVRQAPGKGLEWVGWINTYTGEPTYAADFKRRFTFSLDTSKSTAYLQMNSLRAEDTAVYYCAKYPHYYGSSHWYFDVWGQGTLVTVSS VL: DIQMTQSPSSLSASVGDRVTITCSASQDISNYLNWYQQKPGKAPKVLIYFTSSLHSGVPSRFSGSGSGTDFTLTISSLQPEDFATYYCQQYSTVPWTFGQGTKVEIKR", "False"],
  ["N31 W (anti-VEGF IgG) (antibody, V domains shown, copies: 2 + 2) VH: EVQLVESGGGLVQPGGSLRLSCAASGYTFTWYGMNWVRQAPGKGLEWVGWINTYTGEPTYAADFKRRFTFSLDTSKSTAYLQMNSLRAEDTAVYYCAKYPHYYGSSHWYFDVWGQGTLVTVSS VL: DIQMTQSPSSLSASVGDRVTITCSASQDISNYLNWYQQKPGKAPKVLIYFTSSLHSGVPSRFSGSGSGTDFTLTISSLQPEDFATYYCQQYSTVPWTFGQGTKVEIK", "False"],
  ["T30 K (anti-VEGF IgG) (antibody, V domains shown, copies: 2 + 2) VH: EVQLVESGGGLVQPGGSLRLSCAASGYTFKNYGMNWVRQAPGKGLEWVGWINTYTGEPTYAADFKRRFTFSLDTSKSTAYLQMNSLRAEDTAVYYCAKYPHYYGSSHWYFDVWGQGTLVTVSS VL: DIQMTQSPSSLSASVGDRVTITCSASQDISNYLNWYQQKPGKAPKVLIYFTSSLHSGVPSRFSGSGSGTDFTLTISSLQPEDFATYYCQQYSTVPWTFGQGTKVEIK", "True"],
  ["S100a Q (anti-VEGF IgG) (antibody, V domains shown, copies: 2 + 2) VH: EVQLVESGGGLVQPGGSLRLSCAASGYTFTNYGMNWVRQAPGKGLEWVGWINTYTGEPTYAADFKRRFTFSLDTSKSTAYLQMNSLRAEDTAVYYCAKYPHYYGQSHWYFDVWGQGTLVTVSS VL: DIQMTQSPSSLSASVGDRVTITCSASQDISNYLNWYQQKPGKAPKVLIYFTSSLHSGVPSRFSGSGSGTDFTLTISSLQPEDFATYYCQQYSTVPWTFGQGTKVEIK", "True"]
]}
